B1: Transcription intermediary factor 1-beta, residues 620 to 671; numbered along this chain, Q13263 (parent)
chain: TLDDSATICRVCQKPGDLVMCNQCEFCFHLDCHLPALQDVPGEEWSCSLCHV

Variants of: B1
Assay: abundance fitness (aPCA) (normalised: wild type 0, dead -1); higher = more abundant; growth selection in yeast, the domain comes from the species named
Conditions: Homo sapiens
Classification scheme (abundance fitness): bucket A: < -0.3; bucket B: ≥ -0.3 and < -0.09; bucket C: ≥ -0.09

**Q:** Lab note: which band did C21G land in?
**A:** bucket A

**Q:** Try this variant next: A6P
**A:** bucket B

**Q:** Same question, D3V this time
**A:** bucket A

**Q:** Now consider T7L .
**A:** bucket A

**Q:** Record: G42F
**A:** bucket B

**Q:** Repeat for the following variant: D31G
**A:** bucket C

**Q:** Check L49D too.
**A:** bucket C

**Q:** Now try A6W .
**A:** bucket A

**Q:** What about L30P ?
**A:** bucket B

**Q:** Same read-out for Q23V ?
**A:** bucket B

**Q:** Request: P35A
**A:** bucket A

**Q:** What about N22R ?
**A:** bucket B

**Q:** Please do the same for L49Q as well.
**A:** bucket C

**Q:** Also Q38N ?
**A:** bucket C

**Q:** Follow-up entry: H29F
**A:** bucket A

**Q:** Try H33D next.
**A:** bucket C

**Q:** Input G42R
**A:** bucket C

**Q:** Next variant: G16F
**A:** bucket A

**Q:** And V52D ?
**A:** bucket B
